- TEST SUMMARY: Determination of drug solubility
- Type: physicochemical
- COND: thermodynamic from solid; water / aqueous solvent; read-out: Solubility Water
For each of the molecules below, state its solubility.

Query string: Entry CCN[C@H]1CN(CCCOC)S(=O)(=O)c2sc(S(N)(=O)=O)cc21 [Brinzolamide, reference compound] : reported solubility = ?
Result string: < 1000 µg/mL

Query string: Entry CCN[C@H]1C[C@H](C)S(=O)(=O)c2sc(S(=O)(=O)NC(=O)[C@H](C)OC(=O)[C@H](C)OC(=O)[C@H](C)OC(=O)[C@H](C)OC(=O)CCC(=O)Oc3ccc4c(c3)/C(=C/c3[nH]c(C)c(C(=O)NCCN(CC)CC)c3C)C(=O)N4)cc21 : reported solubility = ?
Result string: < 1000 µg/mL

Query string: Entry CCN[C@H]1C[C@H](C)S(=O)(=O)c2sc(S(=O)(=O)NC(=O)[C@H](C)OC(=O)[C@H](C)OC(=O)[C@H](C)OC(=O)[C@H](C)OC(=O)[C@H](C)OC(C)=O)cc21 [28-1, dorzolamide-acetyl PLA (n=5)] : reported solubility = ?
Result string: < 1000 µg/mL

Query string: Entry CCN[C@H]1CN(CCCOC)S(=O)(=O)c2sc(S(=O)(=O)NC(=O)[C@H](C)OC(=O)[C@H](C)OC(=O)[C@H](C)OC(C)=O)cc21 [36-1, brinzolamide-acetyl PLA (n=3)] : reported solubility = ?
Result string: > 50000 µg/mL

Query string: Entry CCN[C@H]1C[C@H](C)S(=O)(=O)c2sc(S(=O)(=O)NC(=O)[C@H](C)OC(=O)[C@H](C)OC(=O)[C@H](C)OC(=O)[C@H](C)OC(=O)[C@H](C)OC(=O)[C@H](C)OC(C)=O)cc21 [29-1, dorzolamide-acetyl PLA (n=6)] : reported solubility = ?
Result string: < 1000 µg/mL

Query string: Entry CC(C)OC(=O)CCC/C=C\C[C@@H]1[C@@H](CC[C@@H](O)CCc2ccccc2)[C@H](O)C[C@@H]1O [Latanoprost, latanoprost, reference compound] : reported solubility = ?
Result string: < 1000 µg/mL

Query string: Entry CCN(CC)CCNC(=O)c1c(C)[nH]c(/C=C2\C(=O)Nc3ccc(OC(=O)CCCCC(=O)N(CC)[C@H]4CN(CCCOC)S(=O)(=O)c5sc(S(=O)(=O)NC(=O)[C@H](C)OC(=O)[C@H](C)OC(=O)[C@H](C)O)cc54)cc32)c1C : reported solubility = ?
Result string: < 1000 µg/mL

Query string: Entry CCN[C@H]1CN(CCCOC)S(=O)(=O)c2sc(S(=O)(=O)NC(=O)[C@H](C)OC(=O)[C@H](C)OC(=O)[C@H](C)OC(=O)[C@H](C)OC(C)=O)cc21 [37-1, brinzolamide-acetyl PLA (n=4)] : reported solubility = ?
Result string: < 1000 µg/mL

Query string: Entry CCN[C@H]1CN(CCCOC)S(=O)(=O)c2sc(S(=O)(=O)NC(=O)[C@H](C)OC(=O)[C@H](C)OC(=O)[C@H](C)O)cc21 [34-2, brinzolamide-PLA (n=3)] : reported solubility = ?
Result string: > 50000 µg/mL

Query string: Entry CCN[C@H]1C[C@H](C)S(=O)(=O)c2sc(S(=O)(=O)NC(=O)[C@H](C)OC(=O)[C@H](C)OC(=O)[C@H](C)OC(=O)CCC(=O)Oc3ccc4c(c3)/C(=C/c3[nH]c(C)c(C(=O)NCCN(CC)CC)c3C)C(=O)N4)cc21 : reported solubility = ?
Result string: < 1000 µg/mL

Query string: Entry CCN[C@H]1CN(CCCOC)S(=O)(=O)c2sc(S(=O)(=O)NC(=O)[C@H](C)OC(=O)[C@H](C)OC(=O)[C@H](C)OC(=O)[C@H](C)OC(=O)[C@H](C)OC(=O)[C@H](C)OC(C)=O)cc21 [39-1, brinzolamide-acetyl PLA (n=6)] : reported solubility = ?
Result string: < 1000 µg/mL

Query string: Entry CCN(CC)CCNC(=O)c1c(C)[nH]c(/C=C2\C(=O)Nc3ccc(N)cc32)c1C : reported solubility = ?
Result string: < 1000 µg/mL

Query string: Entry CCN[C@H]1CN(CCCOC)S(=O)(=O)c2sc(S(=O)(=O)NC(=O)[C@H](C)OC(=O)[C@H](C)O)cc21 [33-2, brinzolamide-PLA (n=2)] : reported solubility = ?
Result string: > 50000 µg/mL

Query string: Entry CCN[C@H]1C[C@H](C)S(=O)(=O)c2sc(S(=O)(=O)NC(=O)[C@H](C)OC(=O)[C@H](C)OC(=O)[C@H](C)OC(C)=O)cc21 : reported solubility = ?
Result string: > 50000 µg/mL

Query string: Entry CCN[C@H]1C[C@H](C)S(=O)(=O)c2sc(S(=O)(=O)NC(=O)[C@H](C)OC(=O)[C@H](C)OC(=O)[C@H](C)OC(=O)[C@H](C)OC(C)=O)cc21 : reported solubility = ?
Result string: < 1000 µg/mL

Data provenance: patent US10117950B2
